System: 596521-263-R-J1-PDC complex spheroid growth
measurement.notes: Anticancer human tumor 596521-263-R-J1-PDC patient-derived soft tissue sarcoma cell line growth inhibition [Asc]
condition.info: second compound 0.03 µM; first compound 10 µM; stronger effect = lower value
quantity.measured: viability, T/C (%)
Note: unit % is implicit; provide only the numeric part.

INSERT INTO results (molecule, quantity_measured, numeric_readout) VALUES
  ('O=C(c1cc(Cc2n[nH]c(=O)c3ccccc23)ccc1F)N1CCN(C(=O)C2CC2)CC1 + CCN1C(C(=O)NC23CCC(C(=O)O)(CC2)CC3)C(c2cccc(Cl)c2F)C2(C(=O)Nc3cc(Cl)ccc32)C12CCCCC2', 'viability, T/C', 64.3),
  ('C=CC(=O)N1CCN(c2nc(=O)n(-c3c(C)ccnc3C(C)C)c3nc(-c4c(O)cccc4F)c(F)cc23)C(C)C1 (centres undefined) + CCN1C(C(=O)NC23CCC(C(=O)O)(CC2)CC3)C(c2cccc(Cl)c2F)C2(C(=O)Nc3cc(Cl)ccc32)C12CCCCC2', 'viability, T/C', 67.7),
  ('C#Cc1c(F)ccc2cc(O)cc(-c3ncc4c(N5CC6CCC(C5)N6)nc(OCC56CCCN5CC(F)C6)nc4c3F)c12 (centres undefined) + CCN1C(C(=O)NC23CCC(C(=O)O)(CC2)CC3)C(c2cccc(Cl)c2F)C2(C(=O)Nc3cc(Cl)ccc32)C12CCCCC2', 'viability, T/C', 80);

In the following, a different molecule is considered.
Documented viability, T/C of C=C(F)C(=O)N1CCN(c2nc(OCC3CCCN3C)nc3c2CCN(c2cccc4cccc(Cl)c24)C3)CC1CC#N (centres undefined) + CCN1C(C(=O)NC23CCC(C(=O)O)(CC2)CC3)C(c2cccc(Cl)c2F)C2(C(=O)Nc3cc(Cl)ccc32)C12CCCCC2 : 0.62

###

Test system: 596521-263-R-J1-PDC complex spheroid growth
measurement.notes: Anticancer human tumor 596521-263-R-J1-PDC cell line growth inhibition [Asc];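 note: spheroids exposed to compounds for 7 days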
condition.info: curve of first compound; second compound 0.949 µM
# reported IC50; entries follow
Note: unit nM is implicit; provide only the numeric part.

INSERT INTO measurements (molecule, result_unit, numeric_readout) VALUES
  ('COc1c(OCCCN2CCOCC2)ccc2c3n(c(=NC(=O)c4cnc(N)nc4)nc12)CCN3 + CCN1C(C(=O)NC23CCC(C(=O)O)(CC2)CC3)C(c2cccc(Cl)c2F)C2(C(=O)Nc3cc(Cl)ccc32)C12CCCCC2', 'nM', 105);

In the following, a different molecule is considered.
Record for NC(=O)C(=Cn1cnc(-c2cc(C(F)(F)F)cc(C(F)(F)F)c2)n1)c1cncnc1 + CCN1C(C(=O)NC23CCC(C(=O)O)(CC2)CC3)C(c2cccc(Cl)c2F)C2(C(=O)Nc3cc(Cl)ccc32)C12CCCCC2 under target or system 596521-263-R-J1-PDC complex spheroid growth: IC50 reported as 35.1

###

Tested on: 596521-263-R-J1-PDC complex spheroid growth
measurement.notes: Anticancer human tumor 596521-263-R-J1-PDC cell line growth inhibition [Asc];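 note: spheroids exposed to compounds for 7 days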
condition.info: second compound 3.16 µM; first compound 0.0316 µM; stronger effect = lower value
quantity.measured: viability, T/C (%)
Note: unit % is implicit; provide only the numeric part.

INSERT INTO results (compound, numeric_readout) VALUES
  ('COc1c(OCCCN2CCOCC2)ccc2c3n(c(=NC(=O)c4cnc(N)nc4)nc12)CCN3 + Cc1c(S(C)(=O)=O)c(-c2cc(F)cc(N3CCN(c4ccc(NS(=O)(=O)c5ccc(NC(CCN6CCC(C(=O)OCCCP(=O)(O)O)CC6)CSc6ccccc6)c(S(=O)(=O)C(F)(F)F)c5)cc4)CC3)c2)c(-c2ccc(Cl)cc2)n1C(C)C', 55.9);

Documented viability, T/C of C=C(F)C(=O)N1CCN(c2nc(OCC3CCCN3C)nc3c2CCN(c2cccc4cccc(Cl)c24)C3)CC1CC#N (stereo not drawn) + Cc1c(S(C)(=O)=O)c(-c2cc(F)cc(N3CCN(c4ccc(NS(=O)(=O)c5ccc(NC(CCN6CCC(C(=O)OCCCP(=O)(O)O)CC6)CSc6ccccc6)c(S(=O)(=O)C(F)(F)F)c5)cc4)CC3)c2)c(-c2ccc(Cl)cc2)n1C(C)C : 79.5

Documented viability, T/C of C#Cc1c(F)ccc2cc(O)cc(-c3ncc4c(N5CC6CCC(C5)N6)nc(OCC56CCCN5CC(F)C6)nc4c3F)c12 (stereo not drawn) + Cc1c(S(C)(=O)=O)c(-c2cc(F)cc(N3CCN(c4ccc(NS(=O)(=O)c5ccc(NC(CCN6CCC(C(=O)OCCCP(=O)(O)O)CC6)CSc6ccccc6)c(S(=O)(=O)C(F)(F)F)c5)cc4)CC3)c2)c(-c2ccc(Cl)cc2)n1C(C)C : 59.4
